SUBJECT_OF_TEST: Protein Tat (Human immunodeficiency virus type 1 group M subtype B (isolate HXB2)(HIV-1))
Sequence (P04608 whole entry): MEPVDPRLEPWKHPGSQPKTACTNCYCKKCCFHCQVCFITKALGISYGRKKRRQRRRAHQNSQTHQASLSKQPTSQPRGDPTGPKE
Format: functional
The source made the active and inactive calls.
PROPERTY_NAME: IC50

MOLECULE: CCc1nc(OCc2ccco2)c2sc3nc4c(cc3c2n1)COC(C)(C)C4
SUBJECT_OF_TEST: Protein Tat (Human immunodeficiency virus type 1 group M subtype B (isolate HXB2)(HIV-1))
PROPERTY_NAME: IC50
EXPERIMENTAL_VALUE: > 100 µM (active)
//
MOLECULE: C/N=c1\scc(C)n1/N=C/c1ccc(O)c(O)c1O
SUBJECT_OF_TEST: Protein Tat (Human immunodeficiency virus type 1 group M subtype B (isolate HXB2)(HIV-1))
PROPERTY_NAME: IC50
EXPERIMENTAL_VALUE: 49.8 µM (inconclusive)
//
MOLECULE: Cc1cccc(N2C(=O)/C(=C/c3ccc(CN(CCC#N)S(C)(=O)=O)o3)C(=O)NC2=S)c1
SUBJECT_OF_TEST: Protein Tat (Human immunodeficiency virus type 1 group M subtype B (isolate HXB2)(HIV-1))
PROPERTY_NAME: IC50
EXPERIMENTAL_VALUE: > 100 µM (active)
//
MOLECULE: CC(C)CC(NC(=O)/C(=C/c1ccco1)NC(=O)c1ccc(Br)o1)C(=O)O (centres undefined)
SUBJECT_OF_TEST: Protein Tat (Human immunodeficiency virus type 1 group M subtype B (isolate HXB2)(HIV-1))
PROPERTY_NAME: IC50
EXPERIMENTAL_VALUE: > 100 µM (active)

----------
SUBJECT_OF_TEST: Carboxy-terminal domain RNA polymerase II polypeptide A small phosphatase 1 (Homo sapiens, UniProt Q9GZU7)
Sequence (Q9GZU7 whole entry, the tested form may be a part): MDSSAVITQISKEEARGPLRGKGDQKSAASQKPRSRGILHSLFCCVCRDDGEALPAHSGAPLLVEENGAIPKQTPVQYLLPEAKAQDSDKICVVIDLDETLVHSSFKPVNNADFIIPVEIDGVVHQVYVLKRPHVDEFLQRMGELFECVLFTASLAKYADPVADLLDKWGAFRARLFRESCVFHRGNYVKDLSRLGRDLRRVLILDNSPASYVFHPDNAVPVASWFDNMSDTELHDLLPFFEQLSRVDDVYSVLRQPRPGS
PROCEDURE_SUMMARY: CTDSP1 inhibitors, concentration-response, biochemical, absorbance readout, ultra-high-throughput screen actives (AID 540297)
Format: functional
Calls of active or inactive are those of the source.
Listed next: entries and their corresponding IC50.

COMPOUND: Cc1coc2c(C)c3oc(=O)c(CCC(=O)N[C@@H](C)C(=O)N[C@@H](Cc4ccccc4)C(=O)O)c(C)c3cc12
IC50: 3.6 µM (active)
//
COMPOUND: COc1ccc2c(c1)c(=O)oc1cc(OCC(=O)N3CCc4ccccc4C3)ccc12
IC50: 2.9 µM (active)
//
COMPOUND: Cc1cc(C(=O)COC(=O)c2cc(Cl)c(O)c(Cl)c2)c(C)n1C
IC50: 11.5 µM (active)
//
COMPOUND: N#Cc1ccc(OCC(=O)Nc2cccc(S(=O)(=O)NC3=NCCCCC3)c2)cc1
IC50: 11.6 µM (active)
//
COMPOUND: CC[N+]1(CC(O)COC2CC(C)CC(C)(C)C2)CCOCC1 (stereo not given)
IC50: 11.3 µM (active)

----------
SUBJECT_OF_TEST: Estrogen receptor beta (Homo sapiens, UniProt Q92731)
Sequence (Q92731 whole entry): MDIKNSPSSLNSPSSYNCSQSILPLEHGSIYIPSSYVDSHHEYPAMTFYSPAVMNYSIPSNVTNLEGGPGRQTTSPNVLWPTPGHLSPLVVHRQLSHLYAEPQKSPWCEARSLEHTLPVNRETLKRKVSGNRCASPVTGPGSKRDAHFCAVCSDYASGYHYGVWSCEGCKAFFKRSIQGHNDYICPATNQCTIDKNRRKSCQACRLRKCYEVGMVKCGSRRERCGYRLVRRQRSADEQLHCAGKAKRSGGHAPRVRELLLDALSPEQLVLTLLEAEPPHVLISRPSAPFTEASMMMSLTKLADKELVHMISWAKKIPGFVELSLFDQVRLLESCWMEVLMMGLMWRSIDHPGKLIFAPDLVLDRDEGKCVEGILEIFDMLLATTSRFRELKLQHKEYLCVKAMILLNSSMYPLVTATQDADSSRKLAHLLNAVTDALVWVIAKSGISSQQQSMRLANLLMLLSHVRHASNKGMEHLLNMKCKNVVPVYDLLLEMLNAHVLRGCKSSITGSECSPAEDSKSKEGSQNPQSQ
PROCEDURE_SUMMARY: blockers of SRC-3 recruitment to ERβ – biochemical, ELISA, streptavidin-HRP readout, orthogonal assay, confirmation (AID 1060)
Activity calls are given as the source filed them.
Listed next: entries and their corresponding IC50.

MOLECULE: Cc1noc(C)c1CSCC(=O)OCC(=O)Nc1sccc1C#N
SUBJECT_OF_TEST: Estrogen receptor beta (Homo sapiens, UniProt Q92731)
IC50: < 77 µM (not active)
//
MOLECULE: Oc1c(C(c2ccccn2)N2CCOCC2)ccc2cccnc12 (stereo unspecified)
SUBJECT_OF_TEST: Estrogen receptor beta (Homo sapiens, UniProt Q92731)
IC50: > 50 µM (not active)
//
MOLECULE: OC(COc1ccc(C2C=CCC2)cc1)CN1CCCCC1 (stereo unspecified)
SUBJECT_OF_TEST: Estrogen receptor beta (Homo sapiens, UniProt Q92731)
IC50: 13.1 µM (not active)
//
MOLECULE: COc1ccc2c(c1)c(=O)oc1cc(OCC(=O)N3CCc4ccccc4C3)ccc12
SUBJECT_OF_TEST: Estrogen receptor beta (Homo sapiens, UniProt Q92731)
IC50: 5.58 µM (active)
//
MOLECULE: CC1CCCC(C)N1CC(=O)Nc1sc2c(c1C#N)CCC2 (stereo unspecified)
SUBJECT_OF_TEST: Estrogen receptor beta (Homo sapiens, UniProt Q92731)
IC50: 22.5 µM (not active)
//
MOLECULE: COCCCn1c(Cc2csc(Nc3cccc(Cl)c3)n2)nnc1SCC(=O)OC
SUBJECT_OF_TEST: Estrogen receptor beta (Homo sapiens, UniProt Q92731)
IC50: 17 µM (not active)

----------
SUBJECT_OF_TEST: RNA-binding protein pos-1 (Caenorhabditis elegans, UniProt G5EF15)
Sequence (G5EF15 whole entry, the tested form may be a part): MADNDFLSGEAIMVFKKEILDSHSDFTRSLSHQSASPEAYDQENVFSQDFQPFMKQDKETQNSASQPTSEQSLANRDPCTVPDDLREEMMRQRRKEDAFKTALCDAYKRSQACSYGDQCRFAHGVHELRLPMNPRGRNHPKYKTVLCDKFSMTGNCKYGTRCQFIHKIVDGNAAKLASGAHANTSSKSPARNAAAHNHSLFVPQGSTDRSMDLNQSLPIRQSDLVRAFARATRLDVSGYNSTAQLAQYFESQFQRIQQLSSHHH
PROCEDURE_SUMMARY: disruptors of C. elegans POS-1 RNA interaction – biochemical, fluorescence polarization, dose response (AID 1964);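 note: purified POS-1 fused to maltose binding protein made in E. coli; potency of compounds blocking POS-1 binding to fluorescent RNA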
Calls of active or inactive are those of the source.
PROPERTY_NAME: EC50

COMPOUND_SMILES: CNc1nnc(-c2cc3ccccc3oc2=O)s1
PROPERTY_NAME: EC50
EXPERIMENTAL_VALUE: > 300 µM (not active)
//
COMPOUND_SMILES: NC(=O)C[n+]1cccc2ccccc21
PROPERTY_NAME: EC50
EXPERIMENTAL_VALUE: 29.7 µM (active)
//
COMPOUND_SMILES: Cc1cc(C(=O)O)ccc1-n1c(C)cc(/C=C(/C#N)C(=O)Nc2ccccc2)c1C
PROPERTY_NAME: EC50
EXPERIMENTAL_VALUE: > 300 µM (not active)
//
COMPOUND_SMILES: C/N=c1\scc(C)n1/N=C/c1ccc(O)c(O)c1O
PROPERTY_NAME: EC50
EXPERIMENTAL_VALUE: > 300 µM (inconclusive)
//
COMPOUND_SMILES: COc1ccc(C(=O)Nc2nc(-c3ccc([N+](=O)[O-])cc3)c(-c3ccccc3)s2)cc1
PROPERTY_NAME: EC50
EXPERIMENTAL_VALUE: > 300 µM (not active)
//
COMPOUND_SMILES: O=C1NC(=O)N(c2cccc(F)c2)C(=O)/C1=C/c1c[nH]c2ccccc12
PROPERTY_NAME: EC50
EXPERIMENTAL_VALUE: > 300 µM (not active)
//
COMPOUND_SMILES: CC1=C(C#N)C(=O)N(C)C(=O)/C1=C\N
PROPERTY_NAME: EC50
EXPERIMENTAL_VALUE: > 300 µM (not active)
//
COMPOUND_SMILES: C=CCN=C(S)N1CCN(c2cccc(C(F)(F)F)c2)CC1
PROPERTY_NAME: EC50
EXPERIMENTAL_VALUE: > 300 µM (not active)
//
COMPOUND_SMILES: CC(=N)/C(C#N)=C(/O)CSc1ncnc2ccccc12
PROPERTY_NAME: EC50
EXPERIMENTAL_VALUE: > 300 µM (not active)

----------
SUBJECT_OF_TEST: Luciferin 4-monooxygenase (Photinus pyralis, UniProt P08659)
Sequence (P08659 whole entry): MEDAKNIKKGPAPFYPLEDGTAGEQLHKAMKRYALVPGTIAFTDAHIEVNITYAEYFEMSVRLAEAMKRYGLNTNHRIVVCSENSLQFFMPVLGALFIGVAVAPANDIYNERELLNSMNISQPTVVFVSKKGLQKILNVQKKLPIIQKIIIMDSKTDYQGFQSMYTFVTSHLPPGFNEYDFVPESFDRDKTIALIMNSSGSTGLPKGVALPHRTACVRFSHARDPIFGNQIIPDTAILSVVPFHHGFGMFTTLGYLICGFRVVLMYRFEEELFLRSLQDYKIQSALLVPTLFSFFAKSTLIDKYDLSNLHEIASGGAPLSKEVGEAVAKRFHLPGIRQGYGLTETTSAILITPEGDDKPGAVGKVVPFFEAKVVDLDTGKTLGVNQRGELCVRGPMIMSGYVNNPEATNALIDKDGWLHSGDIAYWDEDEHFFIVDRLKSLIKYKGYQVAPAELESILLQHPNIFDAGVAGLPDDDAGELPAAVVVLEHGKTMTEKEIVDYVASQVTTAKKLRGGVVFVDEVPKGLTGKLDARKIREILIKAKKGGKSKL
PROCEDURE_SUMMARY: inhibition of purified Photinus pyralis luciferase – biochemical, luminescence, dose response (AID 1891)
Calls of active or inactive are those of the source.

MOLECULE: COc1cccc(/C=N/Nc2ccnc(O)n2)c1O
EC50: > 112 µM (not active)

MOLECULE: CC(Cc1ccccc1)Nc1ncnc2c1ncn2C1OC(CO)C(O)C1O (stereo unspecified)
EC50: > 112 µM (not active)

MOLECULE: CCOc1ccc(CN2CCN(CCCn3cccn3)CC2CCO)cc1 (stereo unspecified)
EC50: > 112 µM (not active)

MOLECULE: Cc1cc(-c2ccc(S(=O)(=O)N3CCN(c4ccccc4F)CC3)s2)on1
EC50: > 112 µM (not active)

MOLECULE: CCOC(=O)C1CCCN(C(=O)CCCn2nc(C)n3c(cc4sccc43)c2=O)C1 (stereo unspecified)
EC50: > 112 µM (not active)

MOLECULE: Cc1nc2oc3c(NCC4CCCO4)ncnc3c2c2c1COC(C)(C)C2 (stereo unspecified)
EC50: > 112 µM (not active)

MOLECULE: COc1cc2c(cc1OC)-c1cc(N3CCCc4ccccc43)nc(=O)n1CC2
EC50: > 112 µM (not active)

MOLECULE: O=C(Cn1c(O)c(N=NC(=O)c2ccncc2)c2ccccc21)Nc1ccccc1
EC50: > 112 µM (not active)

MOLECULE: N#Cc1nc(Cc2ccccc2)oc1N1CCCC1
EC50: 18.5 µM (active)

MOLECULE: Cc1cccc(C(=N)NOC(=O)c2ccc(Cl)cc2Cl)c1
EC50: 0.761 µM (active)

MOLECULE: O=C(Nc1cccc(F)c1)C1CCN(C(=O)Cc2ccccc2)CC1
EC50: > 112 µM (not active)

----------
Tested on: P388;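 note: compound exposure lasted 48 hours before growth was measured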
PROCEDURE_SUMMARY: cells
Type: functional
CONDITION: Mus musculus
Calls of active or inactive are those of the source.
Possible outcomes: T (active), F (inactive)

COMPOUND: c1ccc2cc3c(cc2c1)OP1(Oc2cccc4cccnc24)(O3)Oc2cc3ccccc3cc2O1
SUBJECT_OF_TEST: P388
CATEGORY_LABEL: F
--
COMPOUND: O=C(O)C1CCC(=O)N1S(=O)(=O)c1ccccc1 (stereo unspecified)
SUBJECT_OF_TEST: P388
CATEGORY_LABEL: F
--
COMPOUND: CCOC(=O)C[n+]1ccc2c([nH]c3cc(OC)ccc32)c1C
SUBJECT_OF_TEST: P388
CATEGORY_LABEL: F
--
COMPOUND: C1CN1c1nc(N2CC2)nc(N2CC2)n1
SUBJECT_OF_TEST: P388
CATEGORY_LABEL: T
--
COMPOUND: O=[N+]([O-])c1cnccc1-n1nnc2ccccc21
SUBJECT_OF_TEST: P388
CATEGORY_LABEL: F
--
COMPOUND: S=C(NCCCCCCNC(=S)Nc1c2ccccc2nc2ccccc12)Nc1c2ccccc2nc2ccccc12
SUBJECT_OF_TEST: P388
CATEGORY_LABEL: F
